# Target or test system: Cyclooxygenase (Rattus norvegicus, UniProt P35355+Q63921)
# Assay comment: Evaluated in vitro for its inhibitory activity against Prostaglandin G/H synthase
# Type: protein assay
Parameter: IC50 (nM)

Compound | Unit label | IC50
CC(C)(C)c1cc(-c2noc(O)n2)cc(C(C)(C)C)c1O | nM | 4700
Cc1noc(-c2cc(C(C)(C)C)c(O)c(C(C)(C)C)c2)n1 | nM | 460
C/N=C(\N)Nc1nc(-c2cc(C(C)(C)C)c(O)c(C(C)(C)C)c2)ns1.Cl | nM | 4400
CC(C)(C)c1cc(C2CCOC2=O)cc(C(C)(C)C)c1O (centres undefined) | nM | 150
CC(C)(C)c1cc(-c2nc(CCl)no2)cc(C(C)(C)C)c1O | nM | 100

a. Cc1nc(-c2cc(C(C)(C)C)c(O)c(C(C)(C)C)c2)no1
b. CC(C)(C)c1cc(-c2nsc(N=C(N)N)n2)cc(C(C)(C)C)c1O.Cl
Between the two listed entries a and b , which has its IC50 at the higher number? Record your answer as the label of the chosen record.
b
(b: 1600 nM, a: 300 nM)

1. CC(C)(C)c1cc(-c2nc(N)no2)cc(C(C)(C)C)c1O
2. CN(C)Cc1noc(-c2cc(C(C)(C)C)c(O)c(C(C)(C)C)c2)n1.Cl
From the recorded data, which exceeds the other in IC50: 1 or 2 ? In your reply, give the label of the chosen option.
1
(1: 1900 nM, 2: 450 nM)

I. CC(C)(C)c1cc(-c2nsc(NC#N)n2)cc(C(C)(C)C)c1O.C[N+](C)(C)CC[O-]
II. CN(C)Cc1nc(-c2cc(C(C)(C)C)c(O)c(C(C)(C)C)c2)no1.Cl
III. CCO/C=N/c1noc(-c2cc(C(C)(C)C)c(O)c(C(C)(C)C)c2)n1
IV. CC(C)(C)c1cc(-c2noc(N)n2)cc(C(C)(C)C)c1O
V. CC(C)(C)c1cc(-c2nsc(CN)n2)cc(C(C)(C)C)c1O.Cl
// smallest IC50 at index 0, largest at the end Answer with the labels in sequence, matching the requested order.
I, V, II, IV, III
(I: 11 nM, V: 87 nM, II: 730 nM, IV: 3000 nM, III: 7200 nM)

a. CC(C)(C)c1cc(-c2noc(N=C(N)N)n2)cc(C(C)(C)C)c1O.CS(=O)(=O)O
b. CC(C)(C)c1cc(-c2nsc(N)n2)cc(C(C)(C)C)c1O
c. CSC(=N)Nc1nc(-c2cc(C(C)(C)C)c(O)c(C(C)(C)C)c2)ns1.Cl
Hey, can you sort those compounds up there by IC50, smallest first? Provide your answer as the labels ordered per the instruction.
c, a, b
(c: 170 nM, a: 670 nM, b: 2200 nM)

---

# Species on record: Rattus norvegicus
# Assay comment: Ratio of IC50 against 5-LO to that of CO enzyme.
Parameter: Ratio

Before answering, review these 3 worked examples.
Compound | Parameter | Measured result
CC(C)(C)c1cc(-c2nsc(N)n2)cc(C(C)(C)C)c1O | Ratio | 0.15
CC(C)(C)c1cc(-c2noc(N)n2)cc(C(C)(C)C)c1O | Ratio | 0.83
Cc1nc(-c2cc(C(C)(C)C)c(O)c(C(C)(C)C)c2)no1 | Ratio | 7.7

a. Cc1noc(-c2cc(C(C)(C)C)c(O)c(C(C)(C)C)c2)n1
b. CN(C)Cc1nc(-c2cc(C(C)(C)C)c(O)c(C(C)(C)C)c2)no1.Cl
c. CC(C)(C)c1cc(-c2nc(N)no2)cc(C(C)(C)C)c1O
d. CC(C)(C)c1cc(-c2nsc(CN)n2)cc(C(C)(C)C)c1O.Cl
Sort the 4 compounds by Ratio; largest first, smallest last. Present the labels in the sequence the task asks for.
d, b, a, c

---

# Tested on: Rattus norvegicus
# Assay comment: Evaluated for the antiinflammatory activity by measuring the percentage inhibition of edema in the carrageenan foot-pad edema test at the dose of 10 mg/kg
# Assay type: functional
# inhibition in vivo at 10 mg/kg listing for each entry below
Only the number, expressed in %, is required.

Here are 4 compounds together with their reported answers.
Compound | inhibition in vivo at 10 mg/kg (%)
CC(C)(C)c1cc(-c2noc(N=C(N)N)n2)cc(C(C)(C)C)c1O.CS(=O)(=O)O | 51.2
CC(C)(C)c1cc(C2CCOC2=O)cc(C(C)(C)C)c1O (stereo not given) | 16.6
CC(C)(C)c1cc(-c2noc(N)n2)cc(C(C)(C)C)c1O | 36
CN(C)Cc1noc(-c2cc(C(C)(C)C)c(O)c(C(C)(C)C)c2)n1.Cl | 34.6

Next compound, inhibition in vivo at 10 mg/kg to be filled in.
Dear colleague, I am looking for the recorded inhibition in vivo at 10 mg/kg of the following compound: CSC(=N)Nc1nc(-c2cc(C(C)(C)C)c(O)c(C(C)(C)C)c2)ns1.Cl
30.7

---

# Organism: Rattus norvegicus
# Assay comment: Ratio of IC50 against 5-LO to that of CO enzyme.
Parameter: Ratio

Example entries and their recorded answers appear below.
Compound | Measured result
CSC(=N)Nc1nc(-c2cc(C(C)(C)C)c(O)c(C(C)(C)C)c2)ns1.Cl | 7.1
CC(C)(C)c1cc(-c2noc(N=C(N)N)n2)cc(C(C)(C)C)c1O.CS(=O)(=O)O | 2.5
CC(C)(C)c1cc(-c2noc(S)n2)cc(C(C)(C)C)c1O | 68
CC(C)(C)c1cc(-c2nsc(N=C(N)N)n2)cc(C(C)(C)C)c1O.Cl | 0.088
CC(C)(C)c1cc(C2CCOC2=O)cc(C(C)(C)C)c1O (configuration not stated) | 17

1. C/N=C(\N)Nc1nc(-c2cc(C(C)(C)C)c(O)c(C(C)(C)C)c2)ns1.Cl
2. CN(C)Cc1noc(-c2cc(C(C)(C)C)c(O)c(C(C)(C)C)c2)n1.Cl
1 or 2 : whose Ratio is greater? Answer by stating the label of the chosen item.
2
